B1: tRNA (parent)
chain: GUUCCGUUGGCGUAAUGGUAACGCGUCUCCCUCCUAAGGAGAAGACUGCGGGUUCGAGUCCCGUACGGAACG

# Variants of: B1
# TEST NAME: yeast fitness relative to wild type (ratio to wild type); higher = fitter; tRNA-Arg(CCU), competitive growth, 37 C, YPD
This sample holds only a part of the variants without activity.
Assign class by yeast fitness: not lower than 0.6 means criterion met; lower than 0.6 means criterion not met.

MUTATION STRING | CLASS NAME
G25A G48A A70U | criterion met
U19C U26G A57G | criterion not met
G41A A43U G51C | criterion not met
C4U G6A C29G G41A C60A | criterion not met
C5G A15U U28C | criterion not met
G10C C55U U59A | criterion not met
A14G C29G C31U A70C | criterion not met
C31U A43C A69C | criterion met
C11G C29U C34U G68C | criterion not met
G12A A40U G52C C60G | criterion not met
C30G A57G G68U | criterion not met
C27U G51C C55A A65C | criterion not met
C5U A14G G51A A65C | criterion not met
C4U A15C A65U A69U | criterion not met
C5A U54A C55G A65C | criterion not met
C5A C24U A37G A40G A42U C49U | criterion not met
A14G C27A C49G U53A C62A | criterion not met
C11A U19A C29A U32A U54C C55G C60G A70U | criterion not met
C5A U59A A69G | criterion not met
C11G G12A A42U C61A A65U | criterion not met
C11G A21U C24U | criterion not met
U16A A37G G39A C49A G50A G68C | criterion not met
A20C C33U A37G A45U G48A G56C | criterion not met
U7A G56A | criterion met
C30U G38C U59A | criterion not met
U13G G41C G51A | criterion not met
C46A G58C | criterion met
A42G C46U A65C | criterion met
A15C G39A A65G | criterion not met
C24G G50A C55U A69C A70U | criterion not met
U54C G68A | criterion met
U32G G48A A70U | criterion not met
U2A C31G C61G | criterion not met
A14U C24G U54G | criterion not met
G9A C34G U47C | criterion not met
A14U U16A U26G C29G G67C | criterion not met
G23C C31U G48A C49U | criterion not met
U28C C62G C66G | criterion not met
G23A C31A A69C | criterion not met
G9A C27G C34U | criterion not met
G12A U35G G58A G68A | criterion not met
C49A G50C | criterion not met
U26A A70U | criterion met
U28G C60A | criterion not met
A15C G39A U64C A65G | criterion not met
C4A G12C | criterion met
C5A C11G A21U | criterion not met
C4G A20C U26G C33U G44C U59A | criterion not met
C4U U7G G56C C60G C66U | criterion not met
C11G U47A G48A | criterion not met
U2G C5U A15U G17A U47G C49G C60G A70U | criterion not met
A15U A40G C46U | criterion met
C22G G25A G41C A57U | criterion not met
U13A C24G G25A G39C A40C G51C A69U A70C | criterion not met
C4A C24U U47G | criterion not met
U16A C46G A57G C61A | criterion not met
C4G C29U A36C A40U C55G | criterion not met
C5A U19G | criterion met
A15G C46G C61G A65G | criterion met
U7C U28C C55U | criterion not met
C5U U35C | criterion met
G12A G48C | criterion met
U16A A20C | criterion met
A15U U19G | criterion met
G6A C22A C29U | criterion not met
G12C A20G C46G | criterion not met
G39C U59A C60G | criterion not met
G6A C31U C55U | criterion not met
C11U C30G A40C C61U | criterion not met
C30A C33A A57U | criterion not met
C11A A43G A69U | criterion not met
C11A A14U C27U | criterion not met
C31A A36G | criterion met
U2A C4A | criterion met
U19C A69C | criterion met
G6U C27U G56A C61U | criterion not met
A14G U19C G68A | criterion not met
C4A C5U C30U A45G | criterion not met
A21U G23C C62A | criterion not met
U2A C33G | criterion met
C27U G38C A40C A42C | criterion not met
C11G G50U C62G | criterion not met
C22G A36C U47A | criterion not met
C4A C27A C62A | criterion not met
